Here, each record is paired with measured MIC data.
- Test system: Staphylococcus aureus
- test.summary: Antimicrobial activity against methicillin-resistant Staphylococcus aureus N315 after 24 hrs by microbroth dilution method
- Assay type: functional
- measurement.context: N315, 24 h
parameter.measured: MIC

compound_smiles=CCCn1c(Cn2cc(F)c(=O)[nH]c2=O)nc2ccccc21 experimental_result="16 µg/mL"
compound_smiles=CCCn1c(=O)c(F)cn(Cc2nc3ccccc3n2CCC)c1=O experimental_result="64 µg/mL"
compound_smiles=CCCCCCCCn1c(=O)c(F)cn(Cc2nc3ccccc3n2CCCCCCCC)c1=O experimental_result="> 512 µg/mL"
compound_smiles=O=c1[nH]c(=O)n(Cc2nc3ccccc3[nH]2)cc1F experimental_result="128 µg/mL"
compound_smiles=Cc1ccc(Cn2c(=O)c(F)cn(Cc3nc4ccccc4n3Cc3ccc(C)cc3)c2=O)cc1 experimental_result="> 512 µg/mL"
compound_smiles=CCn1cc(C(=O)O)c(=O)c2cc(F)c(N3CCNCC3)cc21 experimental_result="8 µg/mL"
compound_smiles=O=c1c(F)cn(Cc2nc3ccccc3n2Cc2ccc(F)cc2)c(=O)n1Cc1ccc(F)cc1 experimental_result="512 µg/mL"
compound_smiles=CCCCCCCCCCCCn1c(=O)c(F)cn(Cc2nc3ccccc3n2CCCCCCCCCCCC)c1=O experimental_result="> 512 µg/mL"
compound_smiles=COc1ccc(Cn2c(=O)c(F)cn(Cc3nc4ccccc4n3Cc3ccc(OC)cc3)c2=O)cc1 experimental_result="32 µg/mL"
compound_smiles=O=c1c(F)cn(Cc2nc3ccccc3n2Cc2ccc([N+](=O)[O-])cc2)c(=O)n1Cc1ccc([N+](=O)[O-])cc1 experimental_result="> 512 µg/mL"
compound_smiles=CCCCCn1c(=O)c(F)cn(Cc2nc3ccccc3n2CCCCC)c1=O experimental_result="16 µg/mL"
compound_smiles=O=c1c(F)cn(Cc2nc3ccccc3n2Cc2cccc(F)c2)c(=O)n1Cc1cccc(F)c1 experimental_result="2 µg/mL"
compound_smiles=CCCCCCCCn1c(Cn2cc(F)c(=O)[nH]c2=O)nc2ccccc21 experimental_result="512 µg/mL"
compound_smiles=CCn1c(=O)c(F)cn(Cc2nc3ccccc3n2CC)c1=O experimental_result="64 µg/mL"
compound_smiles=O=c1[nH]c(=O)n(Cc2nc3cc(F)ccc3[nH]2)cc1F experimental_result="16 µg/mL"
compound_smiles=O=c1c(F)cn(Cc2nc3ccccc3n2Cc2cccc(Cl)c2)c(=O)n1Cc1cccc(Cl)c1 experimental_result="128 µg/mL"
compound_smiles=O=c1c(F)cn(Cc2nc3ccccc3n2Cc2ccccc2F)c(=O)n1Cc1ccccc1F experimental_result="512 µg/mL"
compound_smiles=O=c1[nH]c(=O)n(Cc2nc3ccccc3n2Cc2cccc(F)c2)cc1F experimental_result="64 µg/mL"
compound_smiles=O=c1c(F)cn(Cc2nc3ccccc3n2Cc2ccccc2Cl)c(=O)n1Cc1ccccc1Cl experimental_result="> 512 µg/mL"
compound_smiles=CCCCCCCCCCCCn1c(Cn2cc(F)c(=O)[nH]c2=O)nc2ccccc21 experimental_result="> 512 µg/mL"

---

- Tested on: Staphylococcus aureus
- test.summary: Antimicrobial activity against methicillin-resistant Staphylococcus aureus N315 after 24 hrs by microbroth dilution method
- Type: functional
- measurement.context: N315, 24 h
parameter.measured: MIC

compound_smiles=O=c1c(F)cn(Cc2nc3ccccc3n2Cc2ccccc2)c(=O)n1Cc1ccccc1 parameter_measured=MIC experimental_result="> 512 µg/mL"
compound_smiles=CCn1c(Cn2cc(F)c(=O)[nH]c2=O)nc2ccccc21 parameter_measured=MIC experimental_result="16 µg/mL"
compound_smiles=O=c1c(F)cn(Cc2nc3ccccc3n2Cc2ccc(Cl)cc2)c(=O)n1Cc1ccc(Cl)cc1 parameter_measured=MIC experimental_result="> 512 µg/mL"

---

- Test system: Aspergillus flavus
- test.summary: Antimicrobial activity against Aspergillus flavus ATCC 204304 after 24 hrs by microbroth dilution method
- Format: functional
- measurement.context: ATCC 204304, 24 h
parameter.measured: MIC (µg/mL)

compound_smiles=CCn1c(Cn2cc(F)c(=O)[nH]c2=O)nc2ccccc21 parameter_measured=MIC experimental_result=32
compound_smiles=CCCCCCCCCCCCn1c(=O)c(F)cn(Cc2nc3ccccc3n2CCCCCCCCCCCC)c1=O parameter_measured=MIC experimental_result=512
compound_smiles=CCn1c(=O)c(F)cn(Cc2nc3ccccc3n2CC)c1=O parameter_measured=MIC experimental_result=64

---

Here, each record is paired with measured MIC data.
- Test system: Escherichia coli
- test.summary: Antimicrobial activity against Escherichia coli DH52 after 24 hrs by microbroth dilution method
- Format: functional
- measurement.context: DH52, 24 h
parameter.measured: MIC (µg/mL)

compound_smiles=Cc1ccc(Cn2c(=O)c(F)cn(Cc3nc4ccccc4n3Cc3ccc(C)cc3)c2=O)cc1 parameter_measured=MIC unit_string=µg/mL value_relation_sign== experimental_result=128
compound_smiles=CCCn1c(=O)c(F)cn(Cc2nc3ccccc3n2CCC)c1=O parameter_measured=MIC unit_string=µg/mL value_relation_sign== experimental_result=32
compound_smiles=CCCCCCCCCCCCn1c(Cn2cc(F)c(=O)[nH]c2=O)nc2ccccc21 parameter_measured=MIC unit_string=µg/mL value_relation_sign=> experimental_result=512

Origin of measurements: ChEMBL document CHEMBL3808392
